Entries and their GI50 values follow.
System: OVCAR-4
Experiment: NCI tumour cell line growth inhibition, 48 h
Activity calls are given as the source filed them. No stated cut-off is given here; in the data, active = GI50 up to about 1.1 µM and inactive = higher.

Take a look at these entries with their results.
> print(dat)
                                   compound      observed.result
1  C[C@]12CCC(=O)C=C1CC[C@@H]1[C@@H]2CC[C@]2(C)C(=O)NC(=O)C[C@@H]12  > 100 µM (inactive)
2  CC(=O)O[C@H]1CC[C@@]2(C)[C@@H](CC[C@@H]3[C@@H]2CC(=O)[C@@]2(C)[C@H]3C[C@@H]3CC(C)=CC(=O)[C@@H]32)C1   56.5 µM (inactive)

Which GI50 is listed for Cn1c(N)nc2c(nc(OCc3ccccc3)n2C2OC(CO)C(O)C2O)c1=O (centres undefined) ?
> 100 µM (inactive)

Which GI50 is listed for "CC1=C2CC(C)(C)/C=C\C(=O)/C(C)=C\C3=C[C@H](C)C[C@]3(O2)C1=O" ?
1.52 µM (inactive)
